Reported Kd is given for each of the following compounds.
- subjectOfTest: Gal-3 (Homo sapiens)
- Sequence (P17931 whole entry, species assumed): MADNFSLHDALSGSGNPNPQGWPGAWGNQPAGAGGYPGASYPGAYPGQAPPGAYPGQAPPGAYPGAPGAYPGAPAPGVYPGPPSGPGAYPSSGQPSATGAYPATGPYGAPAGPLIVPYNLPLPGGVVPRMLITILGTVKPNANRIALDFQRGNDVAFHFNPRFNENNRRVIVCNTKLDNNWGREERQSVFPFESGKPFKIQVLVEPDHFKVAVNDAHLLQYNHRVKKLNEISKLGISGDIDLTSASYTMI
- assayDetails: Fluorescence anisotropy assay, inhibition of galectin / fluorescein tagged saccharide probe interaction
Answer with a number only, understood to be in nM.

Study these solved cases before continuing.
[
  {
    "compound": "Cc1nc([C@@H]2OC(CO)[C@H](O)C(n3cc(-c4cc(F)c(F)c(F)c4)cn3)C2O)n(-c2cc(C#N)c3nc(C)sc3c2)n1 (stereo in doubt) [Example 42]",
    "subjectOfTest": "Gal-3 (Homo sapiens)",
    "Kd (nM)": 12
  },
  {
    "compound": "Cc1nc([C@@H]2OC(CO)[C@H](O)C(n3cc(-c4cc(F)c(F)c(F)c4)cn3)C2O)n(-c2cc(Br)cnc2C#N)n1 (stereo in doubt) [Example 22]",
    "subjectOfTest": "Gal-3 (Homo sapiens)",
    "Kd (nM)": 33
  },
  {
    "compound": "Cc1nc([C@@H]2OC(CO)[C@H](O)C(n3cc(-c4cc(F)c(F)c(F)c4)cn3)C2O)n(-c2cncc(Br)c2)n1 (stereo in doubt) [Example 19]",
    "subjectOfTest": "Gal-3 (Homo sapiens)",
    "Kd (nM)": 25
  },
  {
    "compound": "Cc1nc([C@@H]2OC(CO)[C@H](O)C(n3cc(-c4cc(F)c(Cl)c(F)c4)c(C(N)=O)n3)C2O)n(-c2cc(Cl)ccc2C(F)(F)F)n1 (stereo in doubt) [Example 32]",
    "subjectOfTest": "Gal-3 (Homo sapiens)",
    "Kd (nM)": 23
  }
]

Field: next compound
# input compound: Cc1nc([C@@H]2OC(CO)[C@H](O)C(n3cc(-c4cc(F)c(F)c(F)c4)c(C#N)n3)C2O)n(-c2cc(Cl)ccc2C(F)(F)F)n1 (stereo in doubt) [Example 51] ; wanted: its Kd
15

----------
- subjectOfTest: UniProtKB P17931
- assayDetails: Fluorescence anisotropy assay, inhibition of galectin / fluorescein tagged saccharide probe interaction
Threshold-based label: Kd under 0.06 µM gives 1 (yes), Kd not under 0.06 µM gives 0 (no).

# count of solved cases: 8
[
  {
    "molecule": "Cc1nc([C@@H]2OC(CO)[C@H](O)C(n3cc(-c4cc(F)c(F)c(F)c4)cn3)C2O)n(-c2cc(Cl)cnc2C(F)(F)F)n1 (stereo in doubt)",
    "labelValue": "1 (yes)"
  },
  {
    "molecule": "Cc1nc([C@@H]2OC(CO)[C@H](O)C(n3cc(-c4cc(F)c(F)c(F)c4)c(Cc4ccccc4)n3)C2O)n(-c2cc(Cl)ccc2C(F)(F)F)n1 (stereo in doubt)",
    "labelValue": "1 (yes)"
  },
  {
    "molecule": "Cc1nc([C@@H]2OC(CO)[C@H](O)C(n3cc(-c4cc(F)c(F)c(F)c4)c(-c4ccc(F)cc4)n3)C2O)n(-c2cc(Cl)ccc2C(F)(F)F)n1 (stereo in doubt)",
    "labelValue": "0 (no)"
  },
  {
    "molecule": "Cc1nc([C@@H]2OC(CO)[C@H](O)C(n3cc(-c4cc(F)c(F)c(F)c4)cn3)C2O)n(-c2cc(F)c3nc(C)sc3c2)n1 (stereo in doubt)",
    "labelValue": "1 (yes)"
  },
  {
    "molecule": "Cc1nc([C@@H]2OC(CO)[C@H](O)C(n3cc(-c4ccc(C)c(F)c4)cn3)C2O)n(-c2cc(Cl)ccc2C(F)(F)F)n1 (stereo in doubt)",
    "labelValue": "1 (yes)"
  },
  {
    "molecule": "Cc1nc([C@@H]2OC(CO)[C@H](O)C(n3cc(-c4cc(F)c(F)c(F)c4)cn3)C2O)n(-c2ccc3nc(C)sc3c2F)n1 (stereo in doubt)",
    "labelValue": "0 (no)"
  },
  {
    "molecule": "Cc1nc([C@@H]2OC(CO)[C@H](O)C(n3cc(-c4cc(F)c(F)c(F)c4)cn3)C2O)n(-c2cc3sc(C)nc3cc2Br)n1 (stereo in doubt)",
    "labelValue": "1 (yes)"
  },
  {
    "molecule": "Cc1nc([C@@H]2OC(CO)[C@H](O)C(n3cc(-c4cc(F)c(F)c(F)c4)cn3)C2O)n(-c2cnc3nc(C)sc3c2)n1 (stereo in doubt)",
    "labelValue": "1 (yes)"
  }
]

A record lists Cc1nc([C@@H]2OC(CO)[C@H](O)C(n3cc(-c4cc(F)c(F)c(F)c4)cn3)C2O)n(-c2cc(Cl)c3nc(C)sc3c2)n1 (stereo in doubt) . Is its Kd below 0.06 µM?
1 (yes)

Hello, I'm reviewing records and need to know if Kd of Cc1nc([C@@H]2OC(CO)[C@H](O)C(n3cc(-c4ccc(Cl)cc4)cn3)C2O)n(-c2cc(Cl)ccc2C(F)(F)F)n1 (stereo in doubt) is below 0.06 µM. Could you check?
1 (yes)

Kd strictly < 0.06 µM for this molecule? Cc1nc([C@@H]2OC(CO)[C@H](O)C(n3cc(-c4cc(F)c(F)c(F)c4)cn3)C2O)n(-c2cc(Cl)ccc2C(F)(F)F)n1 (stereo in doubt)
1 (yes)

Record Cc1nc([C@@H]2OC(CO)[C@H](O)C(n3cc(-c4cc(F)c(F)c(F)c4)c(-c4ccccc4C)n3)C2O)n(-c2cc(Cl)ccc2C(F)(F)F)n1 (stereo in doubt) : is its Kd strictly below 0.06 µM?
0 (no)

API: query returns whether the molecule falls strictly under 0.06 µM in Kd. Query: Cc1nc([C@@H]2OC(CO)[C@H](O)C(n3cc(-c4cc(F)c(F)c(F)c4)cn3)[C@@H]2O)n(-c2cnc(C#N)c(Cl)c2)n1 (stereo partly shown)
0 (no)

Quick check: Kd of Cc1nc([C@@H]2OC(CO)[C@H](O)C(n3cc(-c4cccc(Cl)c4)cn3)C2O)n(-c2cc(Cl)ccc2C(F)(F)F)n1 (stereo in doubt) under 0.06 µM?
0 (no)

Check if Kd falls below 0.06 µM for Cc1nnc([C@@H]2OC(CO)[C@H](O)C(n3cc(-c4cc(F)c(Cl)c(F)c4)cn3)C2O)n1-c1cc(Cl)ccc1C(F)(F)F (single isomer, unassigned) [Example 10] .
0 (no)

Please state whether Kd is below 0.06 µM for Cc1nc([C@@H]2OC(CO)[C@H](O)C(n3cc(-c4cc(F)ccn4)cn3)C2O)n(-c2cc(Cl)ccc2C(F)(F)F)n1 (stereo in doubt)
0 (no)

Given Cc1nc2ccc(-n3cnnc3[C@@H]3OC(CO)[C@H](O)C(n4cc(-c5cc(F)c(F)c(F)c5)cn4)[C@@H]3O)cc2s1 (stereo partly shown) , is recorded Kd strictly lower than 0.06 µM?
1 (yes)

Does the reported Kd of CCc1nc2ccc(-n3nc(C)nc3[C@@H]3OC(CO)[C@H](O)C(n4cc(-c5cc(F)c(F)c(F)c5)cn4)C3O)cc2s1 (stereo in doubt) stay below 0.06 µM?
1 (yes)
